- TARGET_SYSTEM: T1, Rhesus IL-18 (rhesus (rhesus/cynomolgus))
- T1 construct: also called Rhesus/Cynomolgus IL-18; rhesus/cynomolgus IL-18
- PROTOCOL_TEXT: SPR, Biacore 3000, antibody captured on Protein A, 37 C
pKd: −log10 of the molar value.

BINDER	pKd
H3L2 humanised anti-IL-18 antibody (antibody, human IgG1, kappa, V domains shown, Human IgG1 / kappa) VH: QVQLVQSGAEVKKPGASVKVSCKVSGEISTGYYFHFVRRRPGKGLEWMGRIDPEDDSTKYAERFKDRVTMTADTSTDTAYMELSSLRSEDTATYFCTTWRIYRDSSGRPFYVMDAWGQGTLVTVSS VL: DIQMTQSPSSVSASVGDRVTITCLASEDIYTYLTWYQQKPGKAPKLLIYGANKLQDGVPSRFSGSGSGTDYTLTISSLQPEDFATYYCLQGSKFPLTFGQGTKLEIKR	10.19
H3L3 humanised anti-IL-18 antibody (antibody, human IgG1, kappa, V domains shown, Human IgG1 / kappa) VH: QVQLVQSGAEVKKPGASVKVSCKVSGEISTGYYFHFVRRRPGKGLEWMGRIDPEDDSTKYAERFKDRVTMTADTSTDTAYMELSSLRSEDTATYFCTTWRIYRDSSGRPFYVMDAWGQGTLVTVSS VL: DIQMTQSPSSVSASVGDRVTITCLASEDIYTYLTWYQQKPGKAPQLLIYGANKLQDGVPSRFSGSGSGTDYTLTISSLQPEDEGDYYCLQGSKFPLTFGQGTKLEIKR	10.12
H1L3 humanised anti-IL-18 antibody (antibody, human IgG1, kappa, V domains shown, Human IgG1 / kappa) VH: QVQLVQSGAEVKKPGASVKVSCKVSGEISTGYYFHWVRQAPGKGLEWMGRIDPEDDSTKYAERFKDRVTMTEDTSTDTAYMELSSLRSEDTAVYYCTTWRIYRDSSGRPFYVMDAWGQGTLVTVSS VL: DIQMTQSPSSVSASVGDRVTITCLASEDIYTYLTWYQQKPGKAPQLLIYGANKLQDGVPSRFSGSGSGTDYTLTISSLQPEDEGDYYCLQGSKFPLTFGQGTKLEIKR	9.77
H1L2 humanised anti-IL-18 antibody (antibody, human IgG1, kappa, V domains shown, Human IgG1 / kappa) VH: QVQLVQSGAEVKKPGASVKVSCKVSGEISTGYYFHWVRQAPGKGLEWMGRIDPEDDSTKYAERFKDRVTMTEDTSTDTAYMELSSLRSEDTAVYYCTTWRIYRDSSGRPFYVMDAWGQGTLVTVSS VL: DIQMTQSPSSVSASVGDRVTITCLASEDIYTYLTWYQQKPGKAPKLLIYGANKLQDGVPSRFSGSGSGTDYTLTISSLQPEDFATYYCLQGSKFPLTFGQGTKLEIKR	9.86
